Tested on: 556581-035-R-J1-PDC complex spheroid growth
Test: Anticancer human tumor 556581-035-R-J1-PDC patient-derived ovarian carcinoma cell line growth inhibition [AhR]
Details: second compound 0.316 µM; first compound 0.1 µM; stronger effect = lower value
READOUT: viability, T/C

Entry O=C(C=Cc1cccc(S(=O)(=O)Nc2ccccc2)c1)NO + CC(CO)NC(=O)c1cc(-c2ccc(Cl)cc2)nn(-c2cnn(C)c2)c1=O , system 556581-035-R-J1-PDC complex spheroid growth: what viability, T/C was measured?
91.2%

Requested read-out viability, T/C, target or system 556581-035-R-J1-PDC complex spheroid growth, entry COc1cc(Nc2ncc3c(n2)-c2ccc(Cl)cc2C(c2c(F)cccc2OC)=NC3)ccc1C(=O)O + CC(CO)NC(=O)c1cc(-c2ccc(Cl)cc2)nn(-c2cnn(C)c2)c1=O
73.4%

Under 556581-035-R-J1-PDC complex spheroid growth: viability, T/C value of CC1(C)CCC(CN2CCN(c3ccc(C(=O)NS(=O)(=O)c4ccc(NCC5CCOCC5)c([N+](=O)[O-])c4)c(Oc4cnc5[nH]ccc5c4)c3)CC2)=C(c2ccc(Cl)cc2)C1 + Cc1cncc(-c2nc(NCCc3c[nH]c4ccccc34)c3ncn(C(C)C)c3n2)c1 ?
98.2%

For the record NS(=O)(=O)OCC1CC(n2ccc3c(NC4CCc5ccccc54)ncnc32)CC1O (stereo unspecified) + Cc1ccccc1N=Nc1ccc(NC(=O)c2ccnn2C)c(C)c1 , what value of viability, T/C is listed for 556581-035-R-J1-PDC complex spheroid growth?
104%

Write down the reported viability, T/C of COc1ccc([C@@H](O)c2cc(-c3ncnc4cc(N5CCOCC5)ccc34)c(F)cc2Cl)nn1 + Cc1ccccc1N=Nc1ccc(NC(=O)c2ccnn2C)c(C)c1 , test system: 556581-035-R-J1-PDC complex spheroid growth.
97.2%

Form field - read-out: viability, T/C; system: 556581-035-R-J1-PDC complex spheroid growth; submitted item: O=C(C=Cc1cccc(S(=O)(=O)Nc2ccccc2)c1)NO + Cc1ccccc1N=Nc1ccc(NC(=O)c2ccnn2C)c(C)c1
92.7%

* * *

Test system: 556581-035-R-J1-PDC complex spheroid growth
Assay: Anticancer human tumor 556581-035-R-J1-PDC cell line growth inhibition [AhR]; active = viability on the fitted dose curve at most 10% of control; inactive = the rest;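 also: compound exposure lasted 7 days; 100% = DMSO vehicle control growth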
Settings: second compound 0.316 µM; first compound 1 µM
Please answer using one outcome listed in true (1) (active), false (0) (inactive)

So what was the verdict on Nc1ncn(C2CC(O)C(CO)O2)c(=O)n1 (stereo not drawn) + CC(CO)NC(=O)c1cc(-c2ccc(Cl)cc2)nn(-c2cnn(C)c2)c1=O in this test?
false (0)

Could you check what this test reported for Nc1ccn(C2OC(CO)C(O)C2(F)F)c(=O)n1 (stereo not drawn) + Cc1ccccc1N=Nc1ccc(NC(=O)c2ccnn2C)c(C)c1 ?
false (0)

Kindly provide the recorded test outcome for the following molecule: Nc1ccccc1NC(=O)c1ccc(CNC(=O)OCc2cccnc2)cc1 + Cc1ccccc1N=Nc1ccc(NC(=O)c2ccnn2C)c(C)c1
false (0)

# lookup: test call for COc1cccc2c1C(=O)c1c(O)c3c(c(O)c1C2=O)CC(O)(C(=O)CO)CC3OC1CC(N)C(O)C(C)O1 (stereo not drawn) + CC(CO)NC(=O)c1cc(-c2ccc(Cl)cc2)nn(-c2cnn(C)c2)c1=O
false (0)

Per the assay record, what outcome was assigned to COc1cc(Nc2ncc3c(n2)-c2ccc(Cl)cc2C(c2c(F)cccc2OC)=NC3)ccc1C(=O)O + Cc1ccccc1N=Nc1ccc(NC(=O)c2ccnn2C)c(C)c1 ?
false (0)

Assay outcome for Nc1ccccc1NC(=O)c1ccc(CNC(=O)OCc2cccnc2)cc1 + CC(CO)NC(=O)c1cc(-c2ccc(Cl)cc2)nn(-c2cnn(C)c2)c1=O : what was it?
false (0)

Just curious, what result did COc1cccc2c1C(=O)c1c(O)c3c(c(O)c1C2=O)CC(O)(C(=O)CO)CC3OC1CC(N)C(O)C(C)O1 (stereo not drawn) + Cc1ccccc1N=Nc1ccc(NC(=O)c2ccnn2C)c(C)c1 get here?
false (0)

Please indicate how the test categorized O=C(c1cc(Cc2n[nH]c(=O)c3ccccc23)ccc1F)N1CCN(C(=O)C2CC2)CC1 + Cc1ccccc1N=Nc1ccc(NC(=O)c2ccnn2C)c(C)c1 .
false (0)

Which result was noted for this molecule in the test: COc1cc(Nc2ncc3c(n2)-c2ccc(Cl)cc2C(c2c(F)cccc2OC)=NC3)ccc1C(=O)O + CC(CO)NC(=O)c1cc(-c2ccc(Cl)cc2)nn(-c2cnn(C)c2)c1=O
false (0)

Could you please tell me the result logged for CC1(C)CCC(CN2CCN(c3ccc(C(=O)NS(=O)(=O)c4ccc(NCC5CCOCC5)c([N+](=O)[O-])c4)c(Oc4cnc5[nH]ccc5c4)c3)CC2)=C(c2ccc(Cl)cc2)C1 + CC(CO)NC(=O)c1cc(-c2ccc(Cl)cc2)nn(-c2cnn(C)c2)c1=O in this assay?
false (0)

Assay result, entry O=C(c1cc(Cc2n[nH]c(=O)c3ccccc23)ccc1F)N1CCN(C(=O)C2CC2)CC1 + Cc1cncc(-c2nc(NCCc3c[nH]c4ccccc34)c3ncn(C(C)C)c3n2)c1 — outcome?
false (0)

Give the logged outcome of this assay for the following molecule: Nc1ncn(C2CC(O)C(CO)O2)c(=O)n1 (stereo not drawn) + Cc1cncc(-c2nc(NCCc3c[nH]c4ccccc34)c3ncn(C(C)C)c3n2)c1
false (0)

GET /call?item= Nc1ccn(C2OC(CO)C(O)C2(F)F)c(=O)n1 (stereo not drawn) + CC(CO)NC(=O)c1cc(-c2ccc(Cl)cc2)nn(-c2cnn(C)c2)c1=O returns the recorded outcome of this test.
false (0)

Entry NS(=O)(=O)OCC1CC(n2ccc3c(NC4CCc5ccccc54)ncnc32)CC1O (stereo not drawn) + CC(CO)NC(=O)c1cc(-c2ccc(Cl)cc2)nn(-c2cnn(C)c2)c1=O : call = ?
false (0)

Could you kindly confirm the outcome this assay logged for COc1ccc([C@@H](O)c2cc(-c3ncnc4cc(N5CCOCC5)ccc34)c(F)cc2Cl)nn1 + Cc1ccccc1N=Nc1ccc(NC(=O)c2ccnn2C)c(C)c1 ?
false (0)

In this assay, the call recorded for COc1cccc2c1C(=O)c1c(O)c3c(c(O)c1C2=O)CC(O)(C(=O)CO)CC3OC1CC(N)C(O)C(C)O1 (stereo not drawn) + Cc1cncc(-c2nc(NCCc3c[nH]c4ccccc34)c3ncn(C(C)C)c3n2)c1 was what?
true (1)

Please share the test call associated with O=C(C=Cc1cccc(S(=O)(=O)Nc2ccccc2)c1)NO + CC(CO)NC(=O)c1cc(-c2ccc(Cl)cc2)nn(-c2cnn(C)c2)c1=O .
false (0)

Test call, this molecule: CC1COCCN1c1cc(-c2ccnn2C)c2ccnc(-c3ccn[nH]3)c2n1 (stereo not drawn) + CC(CO)NC(=O)c1cc(-c2ccc(Cl)cc2)nn(-c2cnn(C)c2)c1=O
false (0)

Hi, sorry to bother you, what did the test record for CC1COCCN1c1cc(C2(S(C)(=N)=O)CC2)nc(-c2ccnc3[nH]ccc23)n1 (stereo not drawn) + Cc1cncc(-c2nc(NCCc3c[nH]c4ccccc34)c3ncn(C(C)C)c3n2)c1 ?
false (0)

Query: recorded result category for COc1ccc([C@@H](O)c2cc(-c3ncnc4cc(N5CCOCC5)ccc34)c(F)cc2Cl)nn1 + CC(CO)NC(=O)c1cc(-c2ccc(Cl)cc2)nn(-c2cnn(C)c2)c1=O in this test
false (0)

Field: outcome | Entry: COc1cc(C2c3cc4c(cc3C(OC3OC5COC(C)OC5C(O)C3O)C3COC(=O)C23)OCO4)cc(OC)c1O (stereo not drawn) + Cc1ccccc1N=Nc1ccc(NC(=O)c2ccnn2C)c(C)c1
false (0)

// outcome(item) with item = Nc1ccccc1NC(=O)c1ccc(CNC(=O)OCc2cccnc2)cc1 + Cc1cncc(-c2nc(NCCc3c[nH]c4ccccc34)c3ncn(C(C)C)c3n2)c1
false (0)

I would be grateful if you could indicate the recorded call for CC(C)c1c(-c2ccccc2)nc2c(C#N)c[nH]n2c1=O + CC(CO)NC(=O)c1cc(-c2ccc(Cl)cc2)nn(-c2cnn(C)c2)c1=O .
false (0)
